- Test System: Neutrophil elastase (Homo sapiens) (UniProt P08246)
- Assay Info: Inhibitory activity against [14C]elastin hydrolysis at 3 uM concentration and 2 hr.
Endpoint: inhibition
Number plus unit, in that order.

Q. Which inhibition is reported for this molecule? CCCCCCCC/C=C/CCCCCCCCCCCC(=O)OCc1cc(=O)c(OC(=O)C(C)(C)C)co1
A. 46%

Q. Could you share which inhibition value was measured for CCCCCCCCCCCCCCCCCC(=O)OCc1cc(=O)c(OC(=O)C(C)(C)C)co1 ?
A. 39%

***
Q. Given the entry CC(C)(C)C(=O)Oc1ccc(C(=O)c2ccccc2)c(OC(=O)C(C)(C)C)c1 , report its measured inhibition.
A. 32%

Q. What value of inhibition has been reported for the following molecule? CC(C)(C)C(=O)Oc1ccc(S(=O)(=O)c2ccc(OC(=O)C(C)(C)C)cc2)cc1
A. 40%

Q. Consider the molecule shown here: CC(C)(C)C(=O)Oc1cc(C(=O)OCc2cc(=O)c(OC(=O)C(C)(C)C)co2)cc(OC(=O)C(C)(C)C)c1OC(=O)C(C)(C)C What is its recorded inhibition?
A. 67%

###

Let's look at some compounds and their measured inhibition.
- Test System: Neutrophil elastase (Homo sapiens) (UniProt P08246)
- Sequence (whole entry): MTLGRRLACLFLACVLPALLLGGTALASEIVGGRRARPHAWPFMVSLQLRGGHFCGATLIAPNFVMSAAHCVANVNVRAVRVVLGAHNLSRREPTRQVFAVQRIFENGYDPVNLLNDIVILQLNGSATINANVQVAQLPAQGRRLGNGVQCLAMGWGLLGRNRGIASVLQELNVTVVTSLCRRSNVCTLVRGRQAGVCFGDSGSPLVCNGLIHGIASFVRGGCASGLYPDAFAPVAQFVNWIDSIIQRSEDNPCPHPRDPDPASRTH
- Assay Info: Inhibitory activity against [14C]elastin hydrolysis at 1 uM concentration and 1h.
Report as: number unit

Q. # get_value(readout='inhibition', item= CC(C)(C)C(=O)Oc1ccc(C(=O)OCc2cc(=O)c(OC(=O)C(C)(C)C)co2)c(OC(=O)C(C)(C)C)c1 )
A. 25%

Next:
Q. Form field: reported inhibition of CC(C)(C)C(=O)Oc1cc(C(=O)OCc2cc(=O)c(OC(=O)C(C)(C)C)co2)cc(OC(=O)C(C)(C)C)c1OC(=O)C(C)(C)C
A. 39%

Q. I would be grateful if you could share the reported inhibition for CC(C)(C)C(=O)Oc1ccc(C(=O)c2ccc(OC(=O)C(C)(C)C)cc2OC(=O)C(C)(C)C)cc1 .
A. 45%

Q. Reported inhibition, compound CC(C)(C)C(=O)Oc1ccc(C(=O)c2ccc(OC(=O)C(C)(C)C)cc2OC(=O)C(C)(C)C)c(OC(=O)C(C)(C)C)c1 : ____
A. 62%

Q. Which inhibition is listed for CC(C)(C)C(=O)Oc1ccc(C(=O)c2ccccc2)c(OC(=O)C(C)(C)C)c1 ?
A. 14%

Q. Please give the measured inhibition for this compound: CC(C)(C)C(=O)Oc1ccc(S(=O)(=O)c2ccc(OC(=O)C(C)(C)C)cc2)cc1
A. 29%

###

- Test System: Neutrophil elastase (Homo sapiens) (UniProt P08246)
- Sequence (whole entry): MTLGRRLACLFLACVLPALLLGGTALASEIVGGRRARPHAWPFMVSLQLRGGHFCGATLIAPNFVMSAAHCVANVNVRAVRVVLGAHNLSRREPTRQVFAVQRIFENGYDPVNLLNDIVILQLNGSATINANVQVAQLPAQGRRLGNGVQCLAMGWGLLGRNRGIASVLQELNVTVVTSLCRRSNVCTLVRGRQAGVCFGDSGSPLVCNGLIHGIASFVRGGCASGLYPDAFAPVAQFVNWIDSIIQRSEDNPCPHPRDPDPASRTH
- Assay Info: Inhibitory activity against [14C]elastin hydrolysis at 3 uM concentration and 1h.
# inhibition >= 70% gives class 1, anything below gives class 0

Q. API: above_or_equal(metric=inhibition, cutoff=70%) for item CCCCCCCC/C=C/CCCCCCCCCCCC(=O)OCc1cc(=O)c(OC(=O)C(C)(C)C)co1
A. class 1

Q. Does inhibition meet or surpass 70% for CCCCCCCCCCCCCCCCCC(=O)OCc1cc(=O)c(OC(=O)C(C)(C)C)co1 ?
A. class 0

Q. Please tell me: is the compound CC(C)(C)C(=O)Oc1ccc(C(=O)c2ccccc2)c(OC(=O)C(C)(C)C)c1 at or over 70% in terms of inhibition?
A. class 0

Next:
Q. Could you verify whether the entry CC(C)(C)C(=O)Oc1ccc(S(=O)(=O)c2ccc(OC(=O)C(C)(C)C)cc2)cc1 shows inhibition of no less than 70%?
A. class 0

Source: ChEMBL document CHEMBL1124104
